cell viability overview
System: SEM cells
assay-info: cell viability relative to DMSO control; higher = less cytotoxic
condition-set: RPMI 5 mM glucose + 10% FBS; 48 h; 15.4 µM

molecule	cell viability
O=C(O)CSCC(=O)NC1CCSC1=O (stereo not drawn)	97%
CCC(=O)OC1CCC2C3CCC/4=C/C(=O)CC[C@@]4(C)C3CC[C@]12C (stereo partly drawn)	125%
Nc1nc(Nc2ccc([S+](N)(=O)[O-])cc2)nn1C(=O)c1c(F)cccc1F	34.7%

----------
System: SEM cells
assay-info: cell viability relative to DMSO control; higher = less cytotoxic
condition-set: HPLM + 10% dialyzed FBS; 48 h; 15.4 µM
Could you mark each record Met if its cell viability falls strictly under 80%, and Not met if it equals or exceeds it?

compound	label
CC(=O)Oc1cc2c(s1)CCN(C(C(=O)C1CC1)c1ccccc1F)C2.Cl (configuration not stated)	Not met
O=[S+]([O-])(O)c1ccc2cc(/N=N/c3cc([S+](=O)([O-])O)c4cccnc4c3O)ccc2c1	Not met
O=C(C[C@@H]1C/C=C\CCC(=O)O[C@H](c2ccccc2)CNC1=O)NCc1ccc(Cl)cc1	Not met
Cc1cc(SCc2sc(-c3ccc(C(F)(F)F)cc3)nc2C)ccc1OCC(=O)O	Met
CC(C)C(=O)Nc1ncc(-c2cc(C(F)F)nn2-c2c(Cl)cccc2Cl)s1	Not met
CC(C)(C)Cn1c(N)nc2ccc(-c3[nH]c(C(C)(C)C)nc3-c3ccc(F)cc3)nc21	Met
Nc1nc(Nc2ccc([S+](N)(=O)[O-])cc2)nn1C(=O)c1c(F)cccc1F	Met
O=C([O-])[C@H](CC(=O)N1C[C@H]2CCCC[C@H]2C1)Cc1ccccc1	Not met
Cc1cccc(N(C)C(=S)Oc2ccc3ccccc3c2)c1	Not met
NCCCCCC(=O)O	Not met
O=C(NCCCNc1nc(Nc2cccc(NC(=O)N3CCCC3)c2)ncc1I)c1cccs1	Met

----------
Tested on: NOMO1
assay-info: cell viability relative to DMSO control; higher = less cytotoxic
condition-set: RPMI 5 mM glucose + 10% FBS; 48 h; 0.000781 µM
measurement-kind: cell viability (%)

compound	measurement-kind	unit-abbreviation	result-value
C[C@H]1[C@H](O)O[C@@H]2O[C@@]3(C)CC[C@H]4[C@H](C)CC[C@@H]1[C@@]24OO3	cell viability	%	80.2
Cn1cc(-c2cnn3c(N)c(Br)c([C@@H]4CCCNC4)nc23)cn1	cell viability	%	99.7
CN(CCOc1ccc(NS(C)(=O)=O)cc1)CCc1ccc(NS(C)(=O)=O)cc1	cell viability	%	121
NC1CCC(Nc2nc(Nc3ccc(C(=O)N4CCCCC4)cc3)c3ncn(-c4cccc(F)c4)c3n2)CC1 (configuration not stated)	cell viability	%	117
C[N]1N=CC2=C1C=C(C(=C2)OC3=CC=C(NC(=O)\C4=C\C=C(\C)N(C4=O)C5=CC=C(F)C=C5)C=C3F)C6=C[NH]N=C6	cell viability	%	113
O=C(O)CSCC(=O)NC1CCSC1=O (configuration not stated)	cell viability	%	105
Cc1cc(SCc2sc(-c3ccc(C(F)(F)F)cc3)nc2C)ccc1OCC(=O)O	cell viability	%	100

----------
System: SEM cells
assay-info: AUC of viability dose-response curve (% viability x log10 dose units); higher = less sensitive
condition-set: RPMI 5 mM glucose + 10% FBS; 48 h
AUC of viability dose-response curve overview

molecule	AUC of viability dose-response curve
O=C(O)c1ccc(-c2c[nH]c3ncc(-c4ccccc4)cc23)cc1C1CCCC1	404
CCc1cccc2c3c([nH]c12)C(CC)(CC(=O)O)OCC3 (stereo not drawn)	409
O=C1CCC[C@@H]2[C@H]3CCC[N+]4([O-])CCC[C@@H](CN12)[C@@H]34 (stereo partly drawn)	406
